Experiment: Inhibition of human FRbeta expressed in Chinese Hamster MTXRII-OuaR2-4 R2 cells assessed as reduction in cell proliferation after 96 hrs by CellTiter-blue assay
Measurement name: IC50 (nM)

{"columns": ["Molecular string", "Measurement units", "IC50"],
 "data": [
  ["Nc1nc2sc(CCCCc3ccc(C(=O)N[C@@H](CCC(=O)O)C(=O)O)o3)cc2c(=O)[nH]1", "nM", 2.6]
]}

A: Nc1nc2sc(CCCCc3cc(C(=O)N[C@@H](CCC(=O)O)C(=O)O)cs3)cc2c(=O)[nH]1
B: Nc1nc2sc(CCCCc3csc(C(=O)N[C@@H](CCC(=O)O)C(=O)O)c3)cc2c(=O)[nH]1
C: Nc1nc2sc(CCCc3csc(C(=O)N[C@@H](CCC(=O)O)C(=O)O)c3)cc2c(=O)[nH]1
Order the items by recorded IC50; the first position goes to the largest value. Show the ranking through the labels, in the order asked for. B, A, C
(B: 5.6 nM, A: 1.2 nM, C: 0.24 nM)

* * *

Experiment: Inhibition of human FRalpha expressed in Chinese Hamster MTXRII-OuaR2-4 R2 cells assessed as reduction in cell proliferation after 96 hrs by CellTiter-blue assay
Measurement name: IC50 (nM)

{"columns": ["Molecular string", "Measurement name", "Measurement units", "Measured result"],
 "data": [
  ["Nc1nc2sc(CCCCc3ccc(C(=O)N[C@@H](CCC(=O)O)C(=O)O)o3)cc2c(=O)[nH]1", "IC50", "nM", 11],
  ["Nc1nc2sc(CCCc3cc(C(=O)N[C@@H](CCC(=O)O)C(=O)O)cs3)cc2c(=O)[nH]1", "IC50", "nM", 1.1],
  ["Nc1nc2sc(CCCCc3ccc(C(=O)N[C@@H](CCC(=O)O)C(=O)O)cc3)cc2c(=O)[nH]1", "IC50", "nM", 9],
  ["Nc1nc2sc(CCCc3ccc(C(=O)N[C@@H](CCC(=O)O)C(=O)O)s3)cc2c(=O)[nH]1", "IC50", "nM", 0.34],
  ["Nc1nc2sc(CCCCc3ccc(C(=O)N[C@@H](CCC(=O)O)C(=O)O)s3)cc2c(=O)[nH]1", "IC50", "nM", 2.6]
]}

a: Nc1nc2sc(CCCCc3cc(C(=O)N[C@@H](CCC(=O)O)C(=O)O)cs3)cc2c(=O)[nH]1
b: Nc1nc2sc(CCCCc3csc(C(=O)N[C@@H](CCC(=O)O)C(=O)O)c3)cc2c(=O)[nH]1
c: Nc1nc2sc(CCCc3csc(C(=O)N[C@@H](CCC(=O)O)C(=O)O)c3)cc2c(=O)[nH]1
Given 3 compounds, produce a descending ranking by IC50. Order the labels as requested and give them as your answer. b, a, c
(b: 5.6 nM, a: 0.91 nM, c: 0.44 nM)

* * *

Experiment: Inhibition of human PCFT expressed in Chinese Hamster MTXRII-OuaR2-4 R2 cells assessed as reduction in cell proliferation after 96 hrs by CellTiter-blue assay
pIC50: −log10 of the molar value.
Measurement name: pIC50

{"columns": ["Molecular string", "pIC50"],
 "data": [
  ["Nc1nc2sc(CCCc3csc(C(=O)N[C@@H](CCC(=O)O)C(=O)O)c3)cc2c(=O)[nH]1", 6.97]
]}

1: Nc1nc2sc(CCCc3cc(C(=O)N[C@@H](CCC(=O)O)C(=O)O)cs3)cc2c(=O)[nH]1
2: Nc1nc2sc(CCCCc3csc(C(=O)N[C@@H](CCC(=O)O)C(=O)O)c3)cc2c(=O)[nH]1
Could you check which of 1 and 2 has a smaller value for pIC50? Please indicate the selected item by its label. 2
